tested on: 485176-168-R4-J1-PDC complex spheroid growth; test: Anticancer human tumor 485176-168-R4-J1-PDC patient-derived pancreatic adenocarcinoma cell line growth inhibition [RAS]; settings: curve of first compound; second compound 0.00949 µM
measured-metric: IC50

1) C=CC(=O)Nc1cc(Nc2nccc(-c3cn(C)c4ccccc34)n2)c(OC)cc1N(C)CCN(C)C + CCn1c(-c2cccnc2C(C)OC)c2c3cc(ccc31)N1CCOC(CC(NC(=O)C(C(C)C)N(C)C(=O)C3(F)CCN(C(=O)C#CC(C)(C)N(C)C)CC3)C(=O)N3CCCC(N3)C(=O)OCC(C)(C)C2)C1 :: > 1 µM
2) Cc1nc(N2CCC3(CC2)COC(C)C3N)c(CO)nc1Sc1ccnc(N)c1Cl (stereo unspecified) + CCn1c(-c2cccnc2C(C)OC)c2c3cc(ccc31)N1CCOC(CC(NC(=O)C(C(C)C)N(C)C(=O)C3(F)CCN(C(=O)C#CC(C)(C)N(C)C)CC3)C(=O)N3CCCC(N3)C(=O)OCC(C)(C)C2)C1 :: > 10 µM
3) C=CC(=O)Nc1cc(Nc2nccc(-c3cn(C)c4ccccc34)n2)c(OC)cc1N(C)CCN(C)C + CCn1c(-c2cc(N3CCN(C)CC3)cnc2C(C)OC)c2c3cc(ccc31)-c1csc(n1)CC(NC(=O)C1CC1C)C(=O)N1CCCC(N1)C(=O)OCC(C)(C)C2 :: > 1 µM
4) C[C@@H](NC(=O)c1ncnc(N)c1Cl)c1ncc(C(=O)Nc2cc(C(F)(F)F)c(Cl)cn2)s1 + CCn1c(-c2cccnc2C(C)OC)c2c3cc(ccc31)N1CCOC(CC(NC(=O)C(C(C)C)N(C)C(=O)C3(F)CCN(C(=O)C#CC(C)(C)N(C)C)CC3)C(=O)N3CCCC(N3)C(=O)OCC(C)(C)C2)C1 :: > 10 µM
5) CCN1CCN(Cc2ccc(Nc3ncc(F)c(-c4cc(F)c5nc(C)n(C(C)C)c5c4)n3)nc2)CC1 + CCn1c(-c2cccnc2C(C)OC)c2c3cc(ccc31)N1CCOC(CC(NC(=O)C(C(C)C)N(C)C(=O)C3(F)CCN(C(=O)C#CC(C)(C)N(C)C)CC3)C(=O)N3CCCC(N3)C(=O)OCC(C)(C)C2)C1 :: > 1 µM

Below: the item to evaluate.
Query IC50 on 485176-168-R4-J1-PDC complex spheroid growth for C[C@@H](NC(=O)c1ncnc(N)c1Cl)c1ncc(C(=O)Nc2cc(C(F)(F)F)c(Cl)cn2)s1 + CCn1c(-c2cc(N3CCN(C)CC3)cnc2C(C)OC)c2c3cc(ccc31)-c1csc(n1)CC(NC(=O)C1CC1C)C(=O)N1CCCC(N1)C(=O)OCC(C)(C)C2
> 10 µM

----------
system: 485176-168-R4-J1-PDC complex spheroid growth; experiment: Anticancer human tumor 485176-168-R4-J1-PDC cell line growth inhibition [RAS]; conditions: second compound 1 µM; first compound 1 µM; stronger effect = lower value;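 note: spheroids exposed to compounds for seven days before readout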
# if measured viability, T/C < 60%: Satisfied  # else: Not satisfied

Some entries whose results are on file:
1. Cc1nc(N2CCC3(CC2)COC(C)C3N)c(CO)nc1Sc1ccnc(N)c1Cl (stereo not drawn) + C#Cc1c(F)ccc2cc(O)cc(-c3ncc4c(N5CC6CCC(C5)N6)nc(OCC56CCCN5CC(F)C6)nc4c3F)c12 :: Not satisfied
2. CC(Nc1ccc2c(c1)OCCn1cc(N3C(=O)OCC3C(F)F)nc1-2)C(N)=O (stereo not drawn) + C=CC(=O)N1CCN(c2nc(OCC3CCCN3C)nc3c(F)c(-c4nc(N)cc(C)c4C(F)(F)F)c(Cl)cc23)C(C)C1 :: Not satisfied
3. C=CC(=O)N1CCN(c2nc(OCC3CCCN3C)nc3c(F)c(-c4nc(N)cc(C)c4C(F)(F)F)c(Cl)cc23)C(C)C1 (stereo not drawn) + C#Cc1c(F)ccc2cc(O)cc(-c3ncc4c(N5CC6CCC(C5)N6)nc(OCC56CCCN5CC(F)C6)nc4c3F)c12 :: Not satisfied

Consider the compound Nc1ccn(C2OC(CO)C(O)C2(F)F)c(=O)n1 (stereo not drawn) + C#Cc1c(F)ccc2cc(O)cc(-c3ncc4c(N5CC6CCC(C5)N6)nc(OCC56CCCN5CC(F)C6)nc4c3F)c12 . Is its viability, T/C strictly less than 60%?
Satisfied

Consider the compound C=CC(=O)Nc1cc(Nc2nccc(-c3cn(C)c4ccccc34)n2)c(OC)cc1N(C)CCN(C)C + C=CC(=O)N1CCN(c2nc(OCC3CCCN3C)nc3c(F)c(-c4nc(N)cc(C)c4C(F)(F)F)c(Cl)cc23)C(C)C1 . Is its viability, T/C strictly less than 60%?
Satisfied

Consider the compound CC(Nc1ccc2c(c1)OCCn1cc(N3C(=O)OCC3C(F)F)nc1-2)C(N)=O (stereo not drawn) + C#Cc1c(F)ccc2cc(O)cc(-c3ncc4c(N5CC6CCC(C5)N6)nc(OCC56CCCN5CC(F)C6)nc4c3F)c12 . Is its viability, T/C strictly less than 60%?
Not satisfied

// provenance: PubChem BioAssay AID2060906
